Reference source for all entries: patent US5061794A

Recorded MIC by entry
# System: Ps. cepacia 23
# procedure details: in vitro antibacterial activity, agar plate dilution method (MIC)
# Assay type: cell-based, Pseudomonas cepacia
# experimental conditions: Burkholderia cepacia, 16 h; Ps. cepacia 23; 10^6 CFU/ml; read-out: Minimum Inhibitory Concentration (MIC)

molecule | MIC
CON=C(C(=O)NC1C(=O)N2C(C(=O)O)=C(CSc3nc(C(=O)O)c(-c4ccc(O)c(O)c4)s3)CSC12)c1csc(N)n1 (stereo not drawn) [Ex. 52] | 0.025 µg/mL
Nc1nc(/C(=N/OC(C(=O)O)c2ccc(O)c(O)c2)C(=O)N[C@@H]2C(=O)N3C(C(=O)O)=C(CSc4ncc(-c5ccc(O)c(O)c5)o4)CS[C@H]23)cs1 (stereo partly drawn) [Ex. 65] | < 0.006 µg/mL
CC(C)(ON=C(C(=O)NC1C(=O)N2C(C(=O)O)=C(CSc3nc(C(=O)O)c(-c4ccc(O)c(O)c4)s3)CSC12)c1csc(N)n1)C(=O)O (stereo not drawn) [Ex. 50] | < 0.006 µg/mL
Nc1nc(/C(=N/OCc2ccccc2)C(=O)N[C@@H]2C(=O)N3C(C(=O)O)=C(CSc4nnc(-c5ccc(O)c(O)c5)o4)CS[C@H]23)cs1 [Ex. 13] | 0.025 µg/mL
CC(C)(ON=C(C(=O)NC1C(=O)N2C(C(=O)O)=C(CSc3nc(-c4ccc(O)c(O)c4)c(CC(=O)O)s3)CSC12)c1csc(N)n1)C(=O)O (stereo not drawn) [Example 59 (I)] | < 0.006 µg/mL
Nc1nc(C(=NOC2(C(=O)O)CC2)C(=O)NC2C(=O)N3C(C(=O)O)=C(CSc4nc(-c5ccc(O)c(O)c5)cs4)CSC23)cs1 (stereo not drawn) [Ex. 45] | < 0.006 µg/mL
CON=C(C(=O)NC1C(=O)N2C(C(=O)O)=C(CSc3ncc(-c4ccc(O)c(O)c4)o3)CSC12)c1csc(N)n1 (stereo not drawn) [Ex. 62] | < 0.006 µg/mL
Nc1nc(/C(=N/OC(C(=O)O)c2ccc(O)c(O)c2)C(=O)N[C@@H]2C(=O)N3C(C(=O)O)=C(CSc4nnc(-c5ccc(O)c(O)c5)o4)CS[C@H]23)cs1 (stereo partly drawn) [compound 16] | < 0.006 µg/mL
Nc1nc(/C(=N/OCc2ccc(O)c(O)c2)C(=O)N[C@@H]2C(=O)N3C(C(=O)O)=C(CSc4nnc(-c5ccc(O)c(O)c5)o4)CS[C@H]23)cs1 [Ex. 14] | 0.1 µg/mL
CCO/N=C(\C(=O)N[C@@H]1C(=O)N2C(C(=O)O)=C(CSc3nnc(-c4ccc(OC(C)=O)c(OC(C)=O)c4)o3)CS[C@H]12)c1csc(N)n1 [Ex. 6] | 0.05 µg/mL
CC(C)(O/N=C(\C(=O)N[C@@H]1C(=O)N2C(C(=O)O)=C(CSc3nnc(-c4ccc(O)c(O)c4)s3)CS[C@H]12)c1csc(N)n1)C(=O)O [Ex. 34] | < 0.006 µg/mL
CC(=O)Oc1ccc(-c2nc(SCC3=C(C(=O)O)N4C(=O)C(NC(=O)C(=NOC(C(=O)O)c5ccccc5)c5csc(N)n5)C4SC3)sc2CC(=O)O)cc1OC(C)=O (single isomer, unassigned) [Example 61 DA] | < 0.006 µg/mL

* * *

# Tested on: K. pneumoniae No. 42
# procedure details: in vitro antibacterial activity, agar plate dilution method (MIC)
# Format: cell-based
# experimental conditions: Klebsiella pneumoniae, NO.42, 16 h, read-out: Minimum Inhibitory Concentration (MIC), *K. pneumoniae No. 42, lactamase-producing strain; 10^6 CFU/ml
Each record here notes measured MIC.

compound | target entity | measurement units | MIC
CC(C)ON=C(C(=O)NC1C(=O)N2C(C(=O)O)=C(CSc3nc(-c4ccc(O)c(O)c4)cs3)CSC12)c1csc(N)n1 (stereo not drawn) [Ex. 41] | K. pneumoniae No. 42 | µg/mL | 0.1
CC(=O)Oc1ccc(-c2nc(SCC3=C(C(=O)O)N4C(=O)[C@@H](NC(=O)/C(=N\OC(C)(C)C(=O)O)c5csc(N)n5)[C@H]4SC3)sc2CC(=O)O)cc1 [compound 20, reference compound] | K. pneumoniae No. 42 | µg/mL | 3.12
CON=C(C(=O)NC1C(=O)N2C(C(=O)O)=C(CSc3nc(-c4ccc(O)c(O)c4)cs3)CSC12)c1csc(N)n1 (stereo not drawn) [compound 39] | K. pneumoniae No. 42 | µg/mL | 0.2
